- tgt: LmjIPCS (inositol phosphorylceramide synthase from L. major) (Leishmania major, UniProt E9AFX2)
- Sequence (E9AFX2 whole entry): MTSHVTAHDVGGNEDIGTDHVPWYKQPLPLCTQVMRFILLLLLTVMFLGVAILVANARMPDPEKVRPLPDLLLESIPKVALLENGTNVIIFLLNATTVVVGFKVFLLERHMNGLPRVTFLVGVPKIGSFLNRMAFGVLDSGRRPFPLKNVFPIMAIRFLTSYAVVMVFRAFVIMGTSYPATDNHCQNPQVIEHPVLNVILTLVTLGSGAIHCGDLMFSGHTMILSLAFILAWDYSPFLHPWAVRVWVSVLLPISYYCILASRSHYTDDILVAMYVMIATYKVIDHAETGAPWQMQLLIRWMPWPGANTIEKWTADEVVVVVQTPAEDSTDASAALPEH
- assayMethodText: biochemical
- Type: biochemical
- protocolConditions: single concentration 20mM as printed; screening of NINDS set, sheet Screen 1
Rule: 20mM inhibition LmjIPCS under 7% gives not fulfilled, otherwise fulfilled.

Q) Does 20mM inhibition LmjIPCS meet or surpass 7% for "COc1ccc2c(c1)CC[C@@H]1[C@@H]2CC[C@]2(C)[C@@H](O)[C@H](O)C[C@@H]12" ?
A) fulfilled

Q) Does 20mM inhibition LmjIPCS meet or surpass 7% for NC(=O)NO [HYDROXYUREA] ?
A) fulfilled

Q) Does 20mM inhibition LmjIPCS meet or surpass 7% for N=C(N)NC(=N)Nc1ccccc1 [1-PHENYLBIGUANIDE] ?
A) fulfilled

Q) Does 20mM inhibition LmjIPCS meet or surpass 7% for CC1CCC(C(C)C)C(O)C1 (stereo not drawn) [MENTHOL(-)] ?
A) not fulfilled

Q) Does 20mM inhibition LmjIPCS meet or surpass 7% for "C[C@H]1O[C@@H](n2cc(F)c(=O)[nH]c2=O)[C@H](O)[C@@H]1O" ?
A) not fulfilled

Q) Does 20mM inhibition LmjIPCS meet or surpass 7% for "NCCCS(=O)(=O)O" ?
A) not fulfilled

Q) Does 20mM inhibition LmjIPCS meet or surpass 7% for CC(=O)OCC(=O)[C@@]1(O)CC[C@H]2[C@@H]3C[C@H](C)C4=CC(=O)C=C[C@]4(C)[C@H]3[C@@H](O)C[C@@]21C [6alpha-METHYLPREDNISOLONE ACETATE] ?
A) fulfilled

// provenance: paper PMC7802075
